Molecular target: T1, human CD73 (huCD73) protein, antigen of the Biacore assay (human, UniProt P21589 27-547, limits assumed)
T1 construct: also called human CD73 antigen
T1 sequence (looked up): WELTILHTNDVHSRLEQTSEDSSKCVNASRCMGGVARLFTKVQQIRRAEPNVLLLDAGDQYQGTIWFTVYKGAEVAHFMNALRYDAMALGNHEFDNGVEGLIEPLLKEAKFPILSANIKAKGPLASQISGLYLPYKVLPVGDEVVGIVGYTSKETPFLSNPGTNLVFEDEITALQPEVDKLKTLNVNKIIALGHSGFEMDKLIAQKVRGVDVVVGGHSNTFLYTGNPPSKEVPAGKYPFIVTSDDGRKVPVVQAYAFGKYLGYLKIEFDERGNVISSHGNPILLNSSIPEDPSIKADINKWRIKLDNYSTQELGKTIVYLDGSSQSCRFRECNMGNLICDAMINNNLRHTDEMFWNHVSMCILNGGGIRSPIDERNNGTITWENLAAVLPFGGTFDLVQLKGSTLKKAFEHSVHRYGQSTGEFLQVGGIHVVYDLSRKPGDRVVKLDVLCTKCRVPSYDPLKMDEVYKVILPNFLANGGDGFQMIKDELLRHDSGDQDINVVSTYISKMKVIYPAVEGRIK
Assay: SPR Biacore T200; antibody captured on Protein A chip, CD73 in flow; 1:1 Langmuir
result.type: kon (M⁻¹ s⁻¹)
Return type: number; implicit unit M⁻¹ s⁻¹.

>>> readout_value("Hab108.63 (antibody, V domains shown, VL6 + VH3; full-length antibody) VH: EVTLKESGPVLVKPTETLTLTCTVSGFSLSSYGIQWVRQPPGKLLEWLGVIWSGGSADYNAAFISRLTISKDTSKSQVVLTMTNMDPVDTATYYCAGQYGSVWGQGTLVTVSS VL: DIQMTQSPSSLSASVGDRVTITCRASQDIGDRLNWLQQKPGGAIKRLIYATSSLDSGVPKRFSGSGSGTEYTLTISSLQPEDFATYYCLQYAGSWTFGGGTKVEIK")
228000
>>> readout_value("Hab127.31i (antibody, V domains shown, VL3 + VH1i, HCDR2 hot-spot variant; full-length antibody) VH: EVQLVQSGAEVKKPGASVKVSCKASGYTFTAYFMNWVRQAPGQGLEWMGRIYHHNVDTFYSQKFKGRVTMTVDKSTSTVYMELSSLRSEDTAVYYCATSYVGDWGQGTTVTVSS VL: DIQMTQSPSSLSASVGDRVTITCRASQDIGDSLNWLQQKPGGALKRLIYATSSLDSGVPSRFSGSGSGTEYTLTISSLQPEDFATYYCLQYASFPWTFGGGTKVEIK")
136000

Record Hab127.34 (antibody, V domains shown, VL3 + VH4; recombined with human heavy and light constant regions) VH: EVQLVQSGAEVKKPGASVKVSCKASGYTFTAYFMNWVMQAPGQSLEWIGRIYHNNGDTFYSQKFKGRATLTVDKSTSTVYMELRSLRSEDTAVYYCATSYVGDWGQGTTVTVSS VL: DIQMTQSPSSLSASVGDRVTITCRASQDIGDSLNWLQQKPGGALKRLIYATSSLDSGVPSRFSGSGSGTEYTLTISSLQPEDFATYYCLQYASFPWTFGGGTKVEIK , field kon: 163000
